- target_desc: baculovirus-expressed ALK (Homo sapiens, UniProt Q9UM73)
- Sequence (Q9UM73 19-1620): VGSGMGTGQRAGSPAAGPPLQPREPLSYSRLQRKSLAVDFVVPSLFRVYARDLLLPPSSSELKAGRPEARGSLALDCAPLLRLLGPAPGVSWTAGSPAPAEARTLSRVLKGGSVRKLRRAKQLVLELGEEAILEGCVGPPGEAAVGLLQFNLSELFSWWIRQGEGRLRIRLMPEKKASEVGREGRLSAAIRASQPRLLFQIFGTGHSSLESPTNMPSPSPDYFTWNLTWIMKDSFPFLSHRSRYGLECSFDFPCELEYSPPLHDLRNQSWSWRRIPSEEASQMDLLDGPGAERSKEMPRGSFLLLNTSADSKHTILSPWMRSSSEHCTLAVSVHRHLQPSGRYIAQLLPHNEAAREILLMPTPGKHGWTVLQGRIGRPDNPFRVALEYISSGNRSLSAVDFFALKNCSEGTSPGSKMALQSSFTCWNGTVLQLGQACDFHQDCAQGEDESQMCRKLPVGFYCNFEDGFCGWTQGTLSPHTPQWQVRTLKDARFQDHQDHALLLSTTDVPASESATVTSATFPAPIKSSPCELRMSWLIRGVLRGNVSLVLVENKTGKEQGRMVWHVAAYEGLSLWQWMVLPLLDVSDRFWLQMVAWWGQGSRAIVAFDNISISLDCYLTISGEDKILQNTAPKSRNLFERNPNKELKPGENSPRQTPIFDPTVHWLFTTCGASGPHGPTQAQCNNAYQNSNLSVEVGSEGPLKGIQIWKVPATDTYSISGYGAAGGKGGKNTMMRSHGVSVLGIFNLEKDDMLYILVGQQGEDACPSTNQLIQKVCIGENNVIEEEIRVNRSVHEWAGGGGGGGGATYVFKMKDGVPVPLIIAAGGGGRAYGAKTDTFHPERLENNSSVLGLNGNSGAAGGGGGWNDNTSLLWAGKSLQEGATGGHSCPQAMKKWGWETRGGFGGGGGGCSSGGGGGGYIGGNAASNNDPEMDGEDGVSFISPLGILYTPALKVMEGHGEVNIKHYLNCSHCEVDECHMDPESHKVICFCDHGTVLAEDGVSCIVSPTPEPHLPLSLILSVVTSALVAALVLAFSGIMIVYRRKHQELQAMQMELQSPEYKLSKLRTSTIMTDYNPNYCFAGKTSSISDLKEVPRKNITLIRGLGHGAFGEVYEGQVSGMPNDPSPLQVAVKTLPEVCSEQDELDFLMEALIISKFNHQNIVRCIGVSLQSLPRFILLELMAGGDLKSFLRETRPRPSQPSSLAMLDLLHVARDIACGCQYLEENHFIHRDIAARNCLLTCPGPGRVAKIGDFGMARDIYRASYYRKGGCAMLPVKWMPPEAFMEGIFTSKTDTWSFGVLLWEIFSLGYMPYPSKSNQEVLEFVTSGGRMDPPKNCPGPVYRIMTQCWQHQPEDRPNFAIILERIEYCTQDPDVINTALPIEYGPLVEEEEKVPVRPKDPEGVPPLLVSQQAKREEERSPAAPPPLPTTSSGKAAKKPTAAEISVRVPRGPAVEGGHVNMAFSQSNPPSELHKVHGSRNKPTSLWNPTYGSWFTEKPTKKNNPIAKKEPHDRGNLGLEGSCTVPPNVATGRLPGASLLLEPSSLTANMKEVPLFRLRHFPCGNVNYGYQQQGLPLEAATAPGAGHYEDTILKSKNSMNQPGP
- assay_info: ALK kinase inhibition, TRF/ELISA
- Assay type: biochemical
- cond: read-out: ALK Potency
pIC50: −log10 of the molar value.
pIC50 by entry:

Solved cases (3 shown):
>>> df
                                   compound                               target_desc  result_type  value_reported
0  NC(=O)[C@@H]1[C@H](Nc2c(Cl)cnc3[nH]c(-c4cncs4)nc23)[C@H]2C=C[C@@H]1C2  baculovirus-expressed ALK (Homo sapiens, UniProt Q9UM73)        pIC50    6.00 to 7.00
1  NC(=O)[C@@H]1[C@H](Nc2c(Cl)cnc3[nH]c(-c4cccc(Cl)c4)nc23)[C@H]2C=C[C@@H]1C2  baculovirus-expressed ALK (Homo sapiens, UniProt Q9UM73)        pIC50    6.00 to 7.00
2  CN1CCN(c2nc(Cl)c(-c3nc4c(N[C@H]5[C@@H](C(N)=O)[C@@H]6C=C[C@H]5C6)c(Cl)cnc4[nH]3)s2)CC1  baculovirus-expressed ALK (Homo sapiens, UniProt Q9UM73)        pIC50          > 7.00

I have this compound here, NC(=O)[C@@H]1[C@H](Nc2c(Cl)cnc3[nH]c(-c4cccc(O)c4)nc23)[C@H]2C=C[C@@H]1C2 , and I need its recorded pIC50.
6.00 to 7.00

I have this compound here, COc1cc(N2CCC(N3CCN(C)CC3)CC2)ccc1-c1nc2c(N[C@@H]3CCCC[C@H]3NS(C)(=O)=O)c(Cl)cnc2[nH]1 , and I need its recorded pIC50.
> 7.00

I have this compound here, CN(C)c1ccc(-c2nc3c(N[C@H]4[C@@H](C(N)=O)[C@@H]5C=C[C@H]4C5)ccnc3[nH]2)cc1 , and I need its recorded pIC50.
< 5.00

I have this compound here, NC(=O)[C@@H]1[C@H](Nc2c(Cl)cnc3[nH]c(-c4ccc(CN5CCOCC5)cc4)nc23)[C@H]2C=C[C@@H]1C2 , and I need its recorded pIC50.
> 7.00

I have this compound here, CN1CCN(c2ccc(-c3nc4c(N[C@H]5[C@@H](C(N)=O)[C@@H]6C=C[C@H]5C6)ccnc4[nH]3)cc2)CC1 , and I need its recorded pIC50.
5.00 to 6.00

I have this compound here, CC(C)NC(=O)[C@@H]1[C@H](Nc2c(Cl)cnc3[nH]c(-c4cnn(C)c4)nc23)[C@H]2C=C[C@@H]1C2 , and I need its recorded pIC50.
6.00 to 7.00

I have this compound here, CN1CCC(Oc2ccc(-c3nc4c(N[C@H]5[C@@H](C(N)=O)[C@@H]6C=C[C@H]5C6)c(Cl)cnc4[nH]3)cc2)CC1 , and I need its recorded pIC50.
> 7.00

I have this compound here, COc1cc(CN2CCN(C(C)=O)CC2)ccc1-c1nc2c(N[C@H]3[C@@H](C(N)=O)[C@@H]4C=C[C@H]3C4)c(Cl)cnc2[nH]1 , and I need its recorded pIC50.
> 7.00

I have this compound here, CC(O)CN1CCN(C(=O)COc2ccc(-c3nc4c(N[C@H]5[C@@H](C(N)=O)[C@@H]6C=C[C@H]5C6)c(Cl)cnc4[nH]3)cc2)CC1 (stereo partly shown) , and I need its recorded pIC50.
> 7.00

I have this compound here, C[C@H](O)CN1CCC(n2cc(-c3nc4c(N[C@H]5[C@@H](C(N)=O)[C@@H]6C=C[C@H]5C6)c(Cl)cnc4[nH]3)cn2)CC1 , and I need its recorded pIC50.
> 7.00
